Target: T1, VEGFR-3-Fc (UniProt P35916 25-328)
T1 construct: domain: first three Ig domains; conditioned supernatant of 293T cells; also called VEGFR-3-Fc fusion protein; not shown: Fc fragment of the pIg vector
T1 sequence (looked up): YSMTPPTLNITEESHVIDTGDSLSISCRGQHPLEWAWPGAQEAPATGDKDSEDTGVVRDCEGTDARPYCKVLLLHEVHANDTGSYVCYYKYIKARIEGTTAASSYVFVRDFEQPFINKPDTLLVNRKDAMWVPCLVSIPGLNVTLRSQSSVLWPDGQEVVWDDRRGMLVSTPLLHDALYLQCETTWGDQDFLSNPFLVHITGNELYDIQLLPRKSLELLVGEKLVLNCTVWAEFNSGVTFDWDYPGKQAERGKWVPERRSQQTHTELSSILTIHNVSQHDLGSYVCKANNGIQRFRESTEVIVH
Experiment: receptor-Fc IP

{"binder": "41-16 (ligand) AHYNTEILKFMDVYQRSYCHPREVCIDVGKEYPDEIEYIFKPSCVPLMRCGGCCNSEGLQCMNTSTSYLSKTLFEITVPLSQGPKPVTISFANHTSCRCMSKLD", "binding result": "no binding"}
{"binder": "32-13 (ligand) GQNHHEVVKSIDNEWRKTQCMPIETLVDIFQEFGVATNTFFKPPCVSVYRCGGCCNDEGLECVPTEESNITMQIMRITVPLSQGPKPVTISFANHTSCRCMSKLD", "binding result": "no binding"}
{"binder": "11-11 (ligand) GQNHHEVVKFMDVYQRSYCHPIETLVDIFQEYPDEIEYIFKPSCVPLMRCGGCCNSEGLQCVPTEESNITMQIMRITVPLSQGPKPVTISFLQHNKCECRPKKD", "binding result": "no binding"}
{"binder": "83-5 (ligand) AHYNTEILKFMDVYQRSYCHPIETLVDIFQEYPDEIEYIFKPPCVSVYRCGGCCNDEGLECVPTEESNITMQIMRIKPHQGQHIGEMSFANHTSCRCMSKLD", "binding result": "no binding"}
{"binder": "32-14 (ligand, clone entry) GQNHHEVVKSIDNEWRKTQCMPIETLVDIFQEFGVATNTFFKPPCVSVYRCGGCCNDEGLECMNTSTSYLSKTLFEITVPLSQGPKPVTISFANHTSCRCMSKLD", "binding result": "binds"}
{"binder": "52-15 (ligand, clone entry) AHYNTEILKSIDNEWRKTQCMPIETLVDIFQEFGVATNTFFKPPCVSVYRCGGCCNSEGLQCVPTEESNITMQIMRITVPLSQGPKPVTISFANHTSCRCMSKLD", "binding result": "binds"}
{"binder": "52-6 (ligand) AHYNTEILKSIDNEWRKTQCMPIETLVDIFQEFGVATNTFFKPPCVSVYRCGGCCNDEGLECMNTSTSYLSKTLFEIKPHQGQHIGEMSFANHTSCRCMSKLD", "binding result": "no binding"}
{"binder": "73-11 (ligand) GQNHHEVVKSIDNEWRKTQCMPREVCIDVGKEYPDEIEYIFKPPCVSVYRCGGCCNSEGLQCVPTEESNITMQIMRITVPLSQGPKPVTISFLQHNKCECRPKKD", "binding result": "no binding"}
